The reported numbers originate from patent US20240092867A1.

- subjectOfTest: T1, laminin-111 (human, UniProt P25391 18-3075; P07942 22-1786; P11047 34-1609)
- T1 construct: Full-length recombinant human laminin isoform (BioLamina); Chain composition is read from the isoform name
- protocolDetails: ELISA, GF coated, laminin 10 nM
reportedProperty: binding result

| binder | reportedProperty | measuredResult |
| --- | --- | --- |
| fibroblast growth factor (FGF)-10 (ligand, UniProt O15520 38-208, looked up, mature; Purchased in mature form) QALGQDMVSPEATNSSSSSFSSPSSAGRHVRSYNHLQGDVRWRKLFSFTKYFLKIEKNGKVSGTKKENCPYSILEITSVEIGVVAVKAINSNYYLAMNKKGKLYGSKEFNNDCKLKERIEENGYNTYASFNWQHNGRQMYVALNGKGAPRRGQKTRRKNTSAHFLPMVVHS | binding result | binds |
